From: patent US9399627B2

# Tested on: OVCAR-5
# measurement-protocol: NCI 60-cell screen dose-response study, OVCAR-5
# Assay type: cell-based
# assay-context: Homo sapiens, dose-response study in triplicate, most sensitive cell line
metric-name: pIC50
API: returns pIC50 as number; meaning -log10 of concentration in mol/L.

Reading of pIC50 for CCCCCCCCCCCCNC(=O)N[C@H](C(=O)N[C@H]1/C=C/CCNC(=O)/C=C/[C@H](C)NC1=O)C(C)C [TIR-199] with OVCAR-5: 8.00
